- PROTOCOL DESCRIPTION: label from the status in PepcDB records
MEASUREMENT TYPE: protein production

• MTRKKLNLSYITNESMRKATFNKRKKGLVKKIHELSVLCGIEACAVIYSPFNSNPEVWPSNSEVKNVMENFEMLTKLEQEKKMVSHEGFIRQNISKTMESNNKKMIDNAERTMKEAMFQLLSGKGEKLNLTDRNREDLCKYIDQYLKELYHHKNKTINQSHIEPGESSGATNAMTPTSVVENPNFNHLSHNQYQYQQQFGYPILVQDGIYNPSQIQNQHEEWLDDHMMNHSKEISHPLMDDNNFYYQQP = not failed
• MEYQLQQLASLTLVGIKETYENGRQAQQHIAGFWQRCYQEGVIADLQLKNNGDLAGILGLCIPELDGKMSYMIAVTGDNSADIAKYDVITLASSKYMVFEAQGAVPKAVQQKMEEVHHYIHQYQANTVKSAPFFELYQDGDTTSEKYITEIWMPVKG = not failed
